# measured-on: ITK (Homo sapiens, UniProt Q08881)
# Sequence (Q08881 whole entry): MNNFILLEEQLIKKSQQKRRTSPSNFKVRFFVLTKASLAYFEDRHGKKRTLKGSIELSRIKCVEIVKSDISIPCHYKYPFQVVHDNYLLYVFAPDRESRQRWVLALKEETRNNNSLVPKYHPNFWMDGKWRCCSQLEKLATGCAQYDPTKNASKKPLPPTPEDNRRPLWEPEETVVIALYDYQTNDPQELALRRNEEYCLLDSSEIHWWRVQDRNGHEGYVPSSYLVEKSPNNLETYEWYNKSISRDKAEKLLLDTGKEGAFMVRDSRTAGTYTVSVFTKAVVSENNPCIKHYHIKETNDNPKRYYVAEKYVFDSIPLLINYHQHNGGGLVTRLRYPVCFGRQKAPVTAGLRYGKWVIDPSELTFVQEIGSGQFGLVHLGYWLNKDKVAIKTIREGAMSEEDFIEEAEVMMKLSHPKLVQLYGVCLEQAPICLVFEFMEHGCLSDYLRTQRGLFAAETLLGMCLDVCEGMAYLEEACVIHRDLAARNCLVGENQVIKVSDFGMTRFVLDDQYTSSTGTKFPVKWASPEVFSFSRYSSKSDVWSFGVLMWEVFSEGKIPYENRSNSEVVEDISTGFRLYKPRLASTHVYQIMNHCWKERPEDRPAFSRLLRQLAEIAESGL
pKi: −log10 of the molar value.
Each entry below carries its recorded pKi.
measure-name: pKi

>>> readout_number("CC1(C)CCc2c(C(=O)Nc3cnn(C(c4cccnc4)C4CCS(=O)(=O)CC4)c3)n[nH]c2C1 (single isomer, unassigned) [Example 74b]")
8.52
>>> readout_number("CC1(C)Cc2[nH]nc(C(=O)Nc3cnn(C(CS(C)(=O)=O)c4cccnc4)c3)c2C1 (single isomer, unassigned) [Example 97b]")
8.22
>>> readout_number("CC12CCc3c(C(=O)Nc4cnn(Cc5ccccc5)c4)n[nH]c3C1C2 (single isomer, unassigned) [Example 153b]")
7.82
